biological target: HLA-A*02:16; test: IEDB peptide-MHC binding, purified MHC/direct/fluorescence; filed as Kd, often an IC50 or EC50 that approximates it; bounds were set here for any values at or beyond the usual limits of such assays; conditions: source organism: Zaire ebolavirus
The sequences listed here are annotated with their Kd.

- NYNGLLSSI: ≥ 20 µM

**Q:** // Kd lookup, key: QFLSFASLF
**A:** ≥ 20 µM

* * *

target: HLA-A*69:01; test: IEDB peptide-MHC binding, purified MHC/competitive/fluorescence; filed as Kd, often an IC50 or EC50 that approximates it; bounds were set here for any values at or beyond the usual limits of such assays; settings: source organism: Homo sapiens
MEASURED_METRIC: Kd

**Q:** // Kd lookup, key: VVPYEPPEV
**A:** ≥ 20 µM

* * *

target: HLA-A*31:01; test: IEDB peptide-MHC binding, purified MHC/competitive/radioactivity; filed as Kd, often an IC50 or EC50 that approximates it; bounds were set here for any values at or beyond the usual limits of such assays; conditions: source organism: Mammarenavirus brazilense
MEASURED_METRIC: Kd (µM)
Form entry: value (µM) — number only.

**Q:** // Kd lookup, key: SNSKEIPSFR
**A:** 0.65

* * *

target: HLA-B*18:01; test: IEDB peptide-MHC binding, purified MHC/competitive/fluorescence; filed as Kd, often an IC50 or EC50 that approximates it; bounds were set here for any values at or beyond the usual limits of such assays; conditions: source organism: Corynebacterium glutamicum ATCC 13032
MEASURED_METRIC: Kd

**Q:** // Kd lookup, key: HLPELIWRS
**A:** ≥ 20 µM

* * *

molecular target: HLA-B*45:01; assay: IEDB peptide-MHC binding, purified MHC/competitive/radioactivity; filed as Kd, often an IC50 or EC50 that approximates it; bounds were set here for any values at or beyond the usual limits of such assays; details: source organism: Mammarenavirus brazilense
MEASURED_METRIC: Kd (nM)
Form entry: value (nM) — number only.

**Q:** // Kd lookup, key: CEMNHVNSM
**A:** 214

* * *

biological target: HLA-B*08:01; experiment: IEDB peptide-MHC binding, purified MHC/direct/fluorescence; filed as Kd, often an IC50 or EC50 that approximates it; bounds were set here for any values at or beyond the usual limits of such assays; conditions: source organism: Escherichia coli
MEASURED_METRIC: Kd

**Q:** // Kd lookup, key: WCRVGRGTI
**A:** ≥ 20 µM

* * *

molecular target: HLA-A*68:02; assay: IEDB peptide-MHC binding, purified MHC/competitive/radioactivity; filed as Kd, often an IC50 or EC50 that approximates it; bounds were set here for any values at or beyond the usual limits of such assays; conditions: source organism: Dengue virus 4 Philippines/H241/1956
MEASURED_METRIC: Kd (µM)
Form entry: value (µM) — number only.

• LVMLLVHYAI = 1.26

**Q:** // Kd lookup, key: ESSKNQTWQI
**A:** 0.701

**Q:** // Kd lookup, key: RTIMAVLFVV
**A:** 0.436

**Q:** // Kd lookup, key: TVHADTGCAV
**A:** 0.0861

* * *

target: HLA-A*30:01; experiment: IEDB peptide-MHC binding, purified MHC/competitive/radioactivity; filed as Kd, often an IC50 or EC50 that approximates it; bounds were set here for any values at or beyond the usual limits of such assays; conditions: source organism: Vaccinia virus WR
pKd: −log10 of the molar value.
Assign a class from recorded pKd; defined classes: bottom (below 7), middle (7 to below 9), top (9 or more)

• TVKDGRLGA = bottom

**Q:** Into which bin does this sequence go? KAKEMNALS
**A:** middle

**Q:** Into which bin does this sequence go? KAMWKYPFS
**A:** bottom

**Q:** Into which bin does this sequence go? TSNWTGNYF
**A:** bottom

**Q:** Into which bin does this sequence go? TARSNNRLA
**A:** middle

**Q:** Into which bin does this sequence go? RFRFRSVYG
**A:** top

**Q:** Into which bin does this sequence go? ASKTINALV
**A:** top

**Q:** Into which bin does this sequence go? KSKFPRSML
**A:** middle

**Q:** Into which bin does this sequence go? SIRRNLALK
**A:** middle

* * *

The sequences listed here are annotated with their Kd.
target: HLA-A*69:01; experiment: IEDB peptide-MHC binding, purified MHC/direct/fluorescence; filed as Kd, often an IC50 or EC50 that approximates it; bounds were set here for any values at or beyond the usual limits of such assays; settings: source organism: Vibrio vulnificus

• EEVWRDPYL = ≥ 20 µM

Shift focus to the following entry.
**Q:** // Kd lookup, key: QSDIAGAIH
**A:** ≥ 20 µM

* * *

target: HLA-B*54:01; test: IEDB peptide-MHC binding, purified MHC/competitive/radioactivity; filed as Kd, often an IC50 or EC50 that approximates it; bounds were set here for any values at or beyond the usual limits of such assays; conditions: source organism: Mammarenavirus guanaritoense
MEASURED_METRIC: pKd
Here pKd is given on a logarithmic scale as minus log10 of the concentration in mol/L.

**Q:** // pKd lookup, key: LPNDRVLDI
**A:** 4.88

* * *

molecular target: HLA-A*24:03; assay: IEDB peptide-MHC binding, purified MHC/direct/fluorescence; filed as Kd, often an IC50 or EC50 that approximates it; bounds were set here for any values at or beyond the usual limits of such assays; conditions: source organism: Sudan ebolavirus
MEASURED_METRIC: Kd

**Q:** // Kd lookup, key: YTENTSSYY
**A:** ≥ 20 µM

* * *

molecular target: HLA-A*11:01; experiment: IEDB peptide-MHC binding, purified MHC/direct/fluorescence; filed as Kd, often an IC50 or EC50 that approximates it; bounds were set here for any values at or beyond the usual limits of such assays; settings: source organism: Mycobacterium tuberculosis
pKd: −log10 of the molar value.
MEASURED_METRIC: pKd

**Q:** Recall the recorded pKd for VPRENATAF with HLA-A*11:01 and state it.
**A:** ≤ 4.70

* * *

biological target: HLA-B*83:01; assay: IEDB peptide-MHC binding, purified MHC/competitive/fluorescence; filed as Kd, often an IC50 or EC50 that approximates it; bounds were set here for any values at or beyond the usual limits of such assays; conditions: source organism: Yersinia pestis Nepal516
MEASURED_METRIC: pKd
Here pKd is given on a logarithmic scale as minus log10 of the concentration in mol/L.

**Q:** // pKd lookup, key: MPAIFFSIV
**A:** 6.19

* * *

target: HLA-A*31:01; test: IEDB peptide-MHC binding, purified MHC/direct/fluorescence; filed as Kd, often an IC50 or EC50 that approximates it; bounds were set here for any values at or beyond the usual limits of such assays; conditions: source organism: Brucella abortus 2308
MEASURED_METRIC: Kd

**Q:** // Kd lookup, key: TPPVDRMAV
**A:** ≥ 20 µM

* * *

target: HLA-A*24:02; assay: IEDB peptide-MHC binding, purified MHC/competitive/fluorescence; filed as Kd, often an IC50 or EC50 that approximates it; bounds were set here for any values at or beyond the usual limits of such assays; settings: source organism: Giardia lamblia ATCC 50803
MEASURED_METRIC: pKd
Here pKd is given on a logarithmic scale as minus log10 of the concentration in mol/L.

**Q:** // pKd lookup, key: RYYLSFFHI
**A:** 8.85

* * *

target: HLA-A*02:16; test: IEDB peptide-MHC binding, purified MHC/direct/fluorescence; filed as Kd, often an IC50 or EC50 that approximates it; bounds were set here for any values at or beyond the usual limits of such assays; conditions: source organism: Choclo virus
MEASURED_METRIC: Kd

**Q:** Recall the recorded Kd for HTVGLGQGY with HLA-A*02:16 and state it.
**A:** ≥ 20 µM

* * *

molecular target: HLA-B*35:01; test: IEDB peptide-MHC binding, purified MHC/direct/fluorescence; filed as Kd, often an IC50 or EC50 that approximates it; bounds were set here for any values at or beyond the usual limits of such assays; conditions: source organism: Vibrio vulnificus
MEASURED_METRIC: Kd (nM)
Form entry: value (nM) — number only.

**Q:** // Kd lookup, key: EEVWRDPYL
**A:** 23.9

* * *

target: HLA-A*02:17; assay: IEDB peptide-MHC binding, purified MHC/competitive/radioactivity; filed as Kd, often an IC50 or EC50 that approximates it; bounds were set here for any values at or beyond the usual limits of such assays; details: source organism: Dengue virus 1 Singapore/S275/1990
The sequences listed here are annotated with their Kd.
Form entry: value (nM) — number only.

- IMAVGIVSI: 1910

**Q:** // Kd lookup, key: VLDDGIYRI
**A:** 585

**Q:** // Kd lookup, key: MLLALIAVL
**A:** 7720

**Q:** // Kd lookup, key: KMDIGVPLL
**A:** 1250

**Q:** // Kd lookup, key: ALIAVLTGGV
**A:** 236
